TARGET OR SYSTEM: glycine transporter-1 (GlyT-1) (Homo sapiens, UniProt P48067)
Construct: JAR cells (ATCC#HTB-144), which endogenously express GlyT-1; host or cells: JAR human choriocarcinoma cells
Sequence (P48067 1-706): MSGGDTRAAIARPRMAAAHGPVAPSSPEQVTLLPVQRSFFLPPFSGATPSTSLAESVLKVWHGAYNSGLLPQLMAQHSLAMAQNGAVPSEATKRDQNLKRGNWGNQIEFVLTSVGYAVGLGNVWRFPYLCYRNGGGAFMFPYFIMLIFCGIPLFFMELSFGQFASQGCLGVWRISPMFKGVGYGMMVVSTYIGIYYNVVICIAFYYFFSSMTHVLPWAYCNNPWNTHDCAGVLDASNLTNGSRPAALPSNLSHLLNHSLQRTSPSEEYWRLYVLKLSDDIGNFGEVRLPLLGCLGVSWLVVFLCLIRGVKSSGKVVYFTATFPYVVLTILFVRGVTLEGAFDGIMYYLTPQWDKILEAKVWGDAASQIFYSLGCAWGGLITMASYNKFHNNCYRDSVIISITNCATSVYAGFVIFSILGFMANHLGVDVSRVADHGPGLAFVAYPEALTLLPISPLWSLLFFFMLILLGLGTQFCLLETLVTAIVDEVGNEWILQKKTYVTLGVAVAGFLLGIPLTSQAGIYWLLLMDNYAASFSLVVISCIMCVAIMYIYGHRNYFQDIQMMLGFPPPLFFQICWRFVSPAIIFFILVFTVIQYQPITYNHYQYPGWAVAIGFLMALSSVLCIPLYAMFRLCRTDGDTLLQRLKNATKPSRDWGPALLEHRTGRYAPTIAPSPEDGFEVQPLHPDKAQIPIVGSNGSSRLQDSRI
TEST: [14C]glycine uptake assay in JAR cells endogenously expressing GlyT-1 (scintillation proximity)
Assay type: cell-based
MEASUREMENT CONTEXT: JAR cells, [14C]glycine 5 μM, 3 hour incubation; read-out: GlyT-1 IC50
Where a name gives a salt, the structure may show the parent alone.
RECORDED ENDPOINT: IC50 (nM)
Note: unit nM is implicit; provide only the numeric part.

Below: 2 molecules and their reported IC50.
Cn1cnc(S(=O)(=O)N2CCN(C3(CNC(=O)c4ccccc4OC(F)F)CCC(F)(F)CC3)CC2)c1 [compound 183, Hydrochloride]; 5
CCCS(=O)(=O)N1CCN(C2(CNC(=O)c3c(F)cc(Cl)cc3Cl)CCC(F)(F)CC2)CC1 [compound 255, Hydrochloride]; 14

molecule CCCS(=O)(=O)N1CCN(C2(CNC(=O)c3ccc(Cl)cc3C)CCCCC2)CC1 [compound 9, Hydrochloride] , IC50 observed: 22

Recorded result, CCCS(=O)(=O)N1CCN(C2(CNC(=O)c3c(F)ccc(C(F)(F)F)c3F)CCC(F)(F)CC2)CC1 [compound 262, Hydrochloride] , IC50: 223
